assay summary: physchem
Format: physicochemical
readout kind: pKa
Answer as a number with no unit attached.

Q. Which pKa value belongs to CC(O)CO (stereo not shown) [propane-1,2-diol] ?
A. 14.9
